As shown below, each of these molecules has a reported kinase still bound, per cent of control value.
- measured target: UniProt Q9UPE1
- Sequence (Q9UPE1 whole entry, looked up): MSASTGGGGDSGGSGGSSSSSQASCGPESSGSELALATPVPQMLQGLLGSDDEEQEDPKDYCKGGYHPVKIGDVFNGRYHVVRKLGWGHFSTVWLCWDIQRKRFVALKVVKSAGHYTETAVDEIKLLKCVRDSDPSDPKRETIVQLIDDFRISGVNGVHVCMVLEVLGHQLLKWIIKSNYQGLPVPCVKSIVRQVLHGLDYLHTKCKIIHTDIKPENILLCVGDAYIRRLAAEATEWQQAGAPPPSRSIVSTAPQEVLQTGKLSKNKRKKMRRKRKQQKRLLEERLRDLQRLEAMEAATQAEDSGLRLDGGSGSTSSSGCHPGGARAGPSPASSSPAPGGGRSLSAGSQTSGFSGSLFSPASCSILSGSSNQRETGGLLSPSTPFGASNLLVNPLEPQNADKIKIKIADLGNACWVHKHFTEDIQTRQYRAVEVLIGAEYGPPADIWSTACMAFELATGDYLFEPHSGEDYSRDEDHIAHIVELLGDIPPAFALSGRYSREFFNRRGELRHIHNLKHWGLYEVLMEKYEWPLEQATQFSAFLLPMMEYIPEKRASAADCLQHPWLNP
- procedure details: KINOMEscan competition binding
- conditions used: compound 10.0 µM
Give the number; % is assumed, so skip it.

chemical string: O=C(O)c1ccc(Nc2ncc3c(n2)-c2ccc(Cl)cc2C(c2c(F)cccc2F)=NC3)cc1
kinase still bound, per cent of control [%]: 100
//
chemical string: O=C1Nc2ccc(I)cc2/C1=C/c1cc(Br)c(O)c(Br)c1
kinase still bound, per cent of control [%]: 7.8
//
chemical string: C=CC(=O)Nc1cccc(Nc2nc(N[C@H]3CC[C@H](N(C)C)CC3)nc3c2ncn3C(C)C)c1
kinase still bound, per cent of control [%]: 47
//
chemical string: Cc1ccc(C(=O)Nc2cccc(C(F)(F)F)c2)cc1Nc1cncc(C(N)=O)c1
kinase still bound, per cent of control [%]: 100
//
chemical string: Nc1ccc(-c2ccc3ncc4ccc(=O)n(-c5cccc(C(F)(F)F)c5)c4c3c2)cn1
kinase still bound, per cent of control [%]: 95

Request: Using the record for `CCN1CCN(Cc2ccc(Nc3ncc4c(n3)N(C)c3ccccc3C(=O)N4C)cc2C(F)(F)F)CC1` , report its kinase still bound, per cent of control.
Response: 57

Request: Using the record for `Cc1ccc2nc(NCCN)c3ncc(C)n3c2c1` , report its kinase still bound, per cent of control.
Response: 100

Request: Using the record for `O=C(NOC[C@H](O)CO)c1ccc(F)c(F)c1Nc1ccc(I)cc1F` , report its kinase still bound, per cent of control.
Response: 100

Request: Using the record for `C=CC(=O)Nc1cc(NC(=O)c2ccc(C)c(NC(=O)c3ccno3)c2)cc(C(F)(F)F)c1` , report its kinase still bound, per cent of control.
Response: 100
